- Tested on: RAW-Dual (murine macrophage reporter line)
- assay name: NF-kB reporter (SEAP) activity fold change vs agonist alone; higher = enhanced NF-kB activity
- experimental conditions: modulator concentration 10 µM; agonist: MPLA […]
value kind: NF-kB reporter

compound_structure_string=CCCC(C(=O)OCCN(CC)CC)(c1ccccc1)c1ccccc1.Cl reported=0.978
compound_structure_string=CCCCc1c(CCC)c(=N)c2ccccc2n1C.I reported=1.56
compound_structure_string=Cc1cc(OCC(=O)Nc2ccccc2-c2ccccc2)ccc1Br reported=0.972
compound_structure_string=CC(=O)Nc1nnc(CCS(=O)(=O)c2ccc(Br)cc2)s1 reported=0.93
compound_structure_string=CN(C)CCC=C1c2ccccc2Sc2ccc(Cl)cc21.Cl reported=1.12
compound_structure_string=CC(C)(C)c1ccc(C2=NC(=Cc3cccc4ccccc34)C(=O)O2)cc1 reported=0.97

----------
- System: RAW-Dual (murine macrophage reporter line)
- assay name: IRF reporter (Lucia luciferase) activity fold change vs agonist alone; higher = enhanced IRF activity
- experimental conditions: modulator concentration 10 µM; agonist: 3'3'-cGAMP 10 ug/mL
Where IRF reporter equals or exceeds 0.9, the correct label is true; where it does not, the label is false.

molecule=Cc1ccc(N2C(=O)C(=Cc3cccc([N+](=O)[O-])c3)SC2=S)cc1 category=false
molecule=CC/C(=C(\c1ccccc1)c1ccc(OCCN(C)C)cc1)c1ccccc1.O=C(O)CC(O)(CC(=O)O)C(=O)O category=true
molecule=COc1ccc(N(CC(=O)NCCSCc2cccc(Cl)c2)S(C)(=O)=O)cc1Cl category=true
molecule="CN(C)CCC(c1ccccc1)c1ccccn1.O=C(O)/C=C\\C(=O)O (centres undefined)" category=false
molecule=CC[C@@H]1C(=O)N(C)c2cnc(Nc3ccc(C(=O)N[C@H]4CC[C@H](N5CCN(CC6CC6)CC5)CC4)cc3OC)nc2N1C(C)C category=false
molecule=COc1cc(C(=O)O)ccc1NC(=O)[C@@H]1N[C@@H](CC(C)(C)C)[C@](C#N)(c2ccc(Cl)cc2F)[C@H]1c1cccc(Cl)c1F category=false
molecule="CC(C)NCC(O)COc1cccc2ccccc12.Cl (centres undefined)" category=false
molecule=O=C(NN=Cc1c(O)ccc2ccccc12)c1ccccc1Br category=false
molecule=NN=C1CCCc2c1[nH]c1ccc(Cl)cc21 category=false
molecule=CCc1c(C)c2ccc(OCC(C)=O)c(C)c2oc1=O category=true
molecule="CC1CC(OC(=O)C(O)c2ccccc2)CC(C)(C)N1C (centres undefined)" category=true

----------
- Tested on: RAW-Dual (murine macrophage reporter line)
- assay name: viability score (confluency relative to resting cells, overnight) (fraction); higher = more viable, active = viable (0.7 or more)
- experimental conditions: modulator concentration 10 µM
viability score listing for selected compounds.
value kind: viability score

compound=Cc1ncn(CC(=O)N2CC(Oc3cccc(C(F)(F)F)n3)C2)c(=O)c1C value_kind="viability score" reported=1
compound=Cc1ccc(C=C2Oc3c(ccc(O)c3CN3CCN(CCO)CC3)C2=O)cc1 value_kind="viability score" reported=1.02
compound="CCOC(=O)C1=C(C)OC(N)=C(C#N)C1c1cc(C)c(OC)cc1C (stereo unspecified)" value_kind="viability score" reported=1
compound=Cc1ccccc1Oc1ccc(S(=O)(=O)N2CCCC2)cc1 value_kind="viability score" reported=0.953
compound=Br.CCCc1cc(-c2nc(-c3ccc(C)cc3)cs2)ccn1 value_kind="viability score" reported=0.993
compound=Cc1cc(OC2CN(C(=O)Cn3nnc4ccccc43)C2)cc(=O)n1C1CC1 value_kind="viability score" reported=0.997

----------
viability score listing for selected compounds.
- Test system: RAW-Dual (murine macrophage reporter line)
- assay name: viability score (confluency relative to resting cells, overnight) (fraction); higher = more viable, active = viable (0.7 or more)
- experimental conditions: modulator concentration 10 µM
value kind: viability score

compound_structure_string=CC(C)N(C(=O)c1ccc(C(=O)NCc2ccc(S(N)(=O)=O)cc2)cc1)C(C)C value_kind="viability score" reported=1
compound_structure_string=C=CCN1C(=O)C(=C2C(=O)N(Cc3ccccc3F)c3ccccc32)SC1=S value_kind="viability score" reported=1.01
compound_structure_string=N=C(N)Nc1nc(-c2ccccc2)c(-c2ccccc2)s1 value_kind="viability score" reported=1
compound_structure_string=OCCSCCc1ccncc1 value_kind="viability score" reported=1

----------
- Test system: RAW-Dual (murine macrophage reporter line)
- assay name: NF-kB reporter (SEAP) activity fold change vs agonist alone; higher = enhanced NF-kB activity
- experimental conditions: modulator concentration 10 µM; agonist: CpG ODN 1826 0.5 ug/mL
value kind: NF-kB reporter

compound=CCS(=O)(=O)c1ccc(-c2cccc(NC(=O)CC3CCCC3)c2)nn1 value_kind="NF-kB reporter" reported=1.19
compound=COc1ccc(S(=O)(=O)Nc2ccc(Oc3ccccc3)cc2)cc1 value_kind="NF-kB reporter" reported=1.04
compound="COc1cc2c(cc1OC)C(=O)C(CC1CCN(Cc3ccccc3)CC1)C2.Cl (stereo not drawn)" value_kind="NF-kB reporter" reported=0.127
compound=OCC(CO)N[C@H]1C[C@](O)(CO)[C@@H](O)[C@H](O)[C@H]1O value_kind="NF-kB reporter" reported=0.913
compound=ON=C1ON=C(c2ccccc2)C1=NO value_kind="NF-kB reporter" reported=0.867
compound=C[C@@H](O)[C@H]1C(=O)N2C(C(=O)O)=C(SCCNC=N)C[C@H]12.O value_kind="NF-kB reporter" reported=0.988
compound=CCOc1ccc(S(=O)(=O)NCCn2nc(C3CC3)ccc2=O)cc1C value_kind="NF-kB reporter" reported=1.01
compound=Cl.Cl.Cn1cc(CNCC2CCN(c3ncc(C(=O)NO)cn3)CC2)c2ccccc21 value_kind="NF-kB reporter" reported=1.84
compound=O=C(O)c1cc2ccccc2[nH]1 value_kind="NF-kB reporter" reported=1.02
compound=CCCN(CCC)C(=O)C1=Cc2ccc(-c3ccc(C(=O)N4CCCC4)cc3)cc2N=C(N)C1 value_kind="NF-kB reporter" reported=0.432
compound=COc1ccc(C(=O)C=Cc2cc(OC)c(OC)cc2OC)c(OC)c1 value_kind="NF-kB reporter" reported=0.958
compound="CC(C)(C)C1CCc2c(sc(NC(=O)c3ccc(F)cc3)c2C(N)=O)C1 (stereo not drawn)" value_kind="NF-kB reporter" reported=0.981
compound=O=S(=O)(c1ccc(F)cc1)n1cccc1 value_kind="NF-kB reporter" reported=0.812
compound="CCOC(=O)C1=C(C)NC(C)=C(C(=O)OC)C1c1cccc([N+](=O)[O-])c1 (stereo not drawn)" value_kind="NF-kB reporter" reported=0.706
compound=CN1CCN(c2ccc(-c3cccc(NC(=O)c4ccc5ccccc5c4)c3)nn2)CC1 value_kind="NF-kB reporter" reported=0.162
compound=CC(=NNC(=O)CSc1nc2ccccc2n1Cc1ccccc1)c1ccc(Cl)cc1 value_kind="NF-kB reporter" reported=0.846
compound=CN1C(=O)C(=NNC(=O)COc2cccc(Br)c2)c2ccccc21 value_kind="NF-kB reporter" reported=0.895
compound="COc1ccc(CNC2CCCc3ccccc32)cc1OC (stereo not drawn)" value_kind="NF-kB reporter" reported=0.648
compound=O=C(C=Cc1ccco1)Nc1ccc(C(=O)O)cc1NC(=O)C=Cc1ccco1 value_kind="NF-kB reporter" reported=0.691
compound=CC1(C)Cc2c(sc3nc(SCC(N)=O)n(CCc4ccccc4)c(=O)c23)CO1 value_kind="NF-kB reporter" reported=0.815
compound=C=CCc1ccc(OCCCOc2ccccc2C(C)=O)c(OC)c1 value_kind="NF-kB reporter" reported=1.02
compound=Cc1ccccc1C(=O)Nc1nc(C(C)(C)C)cs1 value_kind="NF-kB reporter" reported=0.519
compound="CCC(NC(C)C)C(O)c1ccc(O)c(O)c1 (stereo not drawn)" value_kind="NF-kB reporter" reported=2.04
compound=COc1ccc([C@H]2CNC(=O)C2)cc1OC1CCCC1 value_kind="NF-kB reporter" reported=2.61
compound=O=C1OC(c2ccc3ccccc3c2)=NC1=Cc1ccc(Br)c([N+](=O)[O-])c1 value_kind="NF-kB reporter" reported=0.963
compound=Cc1cc(N2CCCC2)nc(Nc2ccc(NC(=O)CC(C)C)cc2)n1 value_kind="NF-kB reporter" reported=0.131
compound=C=CCNC(=O)c1cccc(Br)c1 value_kind="NF-kB reporter" reported=0.781
compound=C=CCN1C(=O)C(=C2C(=O)N(Cc3ccccc3F)c3ccccc32)SC1=S value_kind="NF-kB reporter" reported=1.09
compound=Nc1ccn([C@@H]2O[C@H](CO)[C@@H](O)[C@@H]2O)c(=O)n1 value_kind="NF-kB reporter" reported=1.36
compound="CC#CCn1c(N2CCCC(N)C2)nc2c1c(=O)n(Cc1nc(C)c3ccccc3n1)c(=O)n2C (stereo not drawn)" value_kind="NF-kB reporter" reported=0.931
compound="Cc1ccccc1C(=O)Nc1ccc(C(=O)N2CCCC(N(C)C)c3ccccc32)cc1 (stereo not drawn)" value_kind="NF-kB reporter" reported=1.05
compound="CC1CC(=O)C2=C(C1)OC(N)=C(C#N)C2c1cccc2ccccc12 (stereo not drawn)" value_kind="NF-kB reporter" reported=1.04
compound="COc1ccc(C(C)(C#N)CC#N)cc1 (stereo not drawn)" value_kind="NF-kB reporter" reported=1.11
